# EC50 per record follows
System: HBV
Assay: HBV inhibitory activity: HBV DNA in the culture medium of HepG2.2.15 cells by q-PCR
Assay type: cell-based
Conditions: HepG2.2.15 cells, 6 days of compound treatment, HBV DNA in culture medium by q-PCR, highest concentration 10 μM; read-out: EC50
Phrase the answer as number then unit, nothing more needed.

Completed entries (count: 3):
[[record]]
molecule = "CCCS(=O)(=O)N1CCC(C2=C(C(=O)OC)C(c3ccc(F)cc3Cl)N=C(c3nccs3)N2)C1 (single isomer, unassigned) [Compound 256D]"
assay_metric = "EC50"
measurement = "964 nM"

[[record]]
molecule = "COC(=O)C1=C(C2CCN(S(=O)(=O)CC(O)CO)CC2)NC(c2nccs2)=NC1c1ccc(F)cc1Cl (single isomer, unassigned) [Compound 305B]"
assay_metric = "EC50"
measurement = "25 nM"

[[record]]
molecule = "COC(=O)C1=C(C2CCN(S(=O)(=O)[C@H]3C[C@](C)(C(=O)O)C3)CC2)NC(c2nccs2)=NC1c1cccc(F)c1Cl (stereo partly shown) [Compound 274A]"
assay_metric = "EC50"
measurement = "42 nM"


# context switch: different molecule, same EC50
Qu. Report EC50 for COC(=O)C1=C(C2CCN(S(=O)(=O)CC(=O)O)C2)NC(c2nccs2)=NC1c1ccc(F)cc1Cl (single isomer, unassigned) [Compound 214A]
Ans. 196 nM

Numbers sourced from patent US11639350B2.
